- Test system: Methicillin Resistant Staphylococcus epidermidis
- protocol-text: In vitro antibacterial activity, broth microdilution MIC90
- Format: cell-based
- condition: Staphylococcus epidermidis
MIC90: recorded values

- compound: "CC(=O)NC[C@H]1CN(c2ccc(-c3ccc(N4C=NN(C(=O)CO)CC4)nc3)c(F)c2)C(=O)O1 [Compound 11]"
  MIC90 (µg/mL): 0.25
- compound: "COC(=O)NC[C@H]1CN(c2ccc(-c3ccc(N4C=NN(C(=O)CO)CC4)nc3)c(F)c2)C(=O)O1 [Compound 25]"
  MIC90 (µg/mL): 1
- compound: "O=C(C(O)CO)N1CCN(c2ccc(-c3ccc(N4C[C@H](Cn5ccnn5)OC4=O)cc3F)cn2)C=N1 (stereo partly shown) [Compound 37]"
  MIC90 (µg/mL): 2
- compound: "C#CCN1C=NN(c2ccc(-c3ccc(N4C[C@H](CNC(C)=O)OC4=O)cc3F)cn2)CC1 [Compound 55]"
  MIC90 (µg/mL): 4
- compound: "CNC(=O)N1CCN(c2ccc(-c3ccc(N4C[C@H](CNC(=O)OC)OC4=O)cc3F)cn2)C=N1 [Compound 27]"
  MIC90 (µg/mL): 2
- compound: "NC(=O)N1CCN(c2ccc(-c3ccc(N4C[C@H](Cn5ccnn5)OC4=O)cc3F)cn2)C=N1 [Compound 33]"
  MIC90 (µg/mL): 1
- compound: "CC(=O)NC[C@H]1CN(c2ccc(-c3ccc(N4C=NN(CC(=O)OC(C)(C)C)CC4)nc3)c(F)c2)C(=O)O1 [Compound 9]"
  MIC90 (µg/mL): 4

###

- System: Staphylococcus epidermidis
- protocol-text: In vitro antibacterial activity, broth microdilution MIC90
- Assay type: cell-based
- condition: Staphylococcus epidermidis

- compound: "C#CCN1C=NN(c2ccc(-c3ccc(N4C[C@H](CNC(C)=O)OC4=O)cc3F)cn2)CC1"
  MIC90 / µg/mL: 2
- compound: "CC(=O)NC[C@H]1CN(c2ccc(-c3ccc(N4C=NN(C(=O)CO)CC4)nc3)c(F)c2)C(=O)O1"
  MIC90 / µg/mL: 0.063
- compound: "CC(=O)NC[C@H]1CN(c2ccc(-c3ccc(N4CCNC=N4)nc3)c(F)c2)C(=O)O1"
  MIC90 / µg/mL: 1
- compound: "CC(=O)NC[C@H]1CN(c2ccc(-c3ccc(N4C=NN(CC(=O)OC(C)(C)C)CC4)nc3)c(F)c2)C(=O)O1"
  MIC90 / µg/mL: 1
- compound: "CC(=O)NC[C@H]1CN(c2ccc(-c3ccc(N4C=NN(C(=O)C5COC(C)(C)O5)CC4)nc3)c(F)c2)C(=O)O1 (stereo partly drawn)"
  MIC90 / µg/mL: 4
- compound: "CNC(=O)N1CCN(c2ccc(-c3ccc(N4C[C@H](CNC(=O)OC)OC4=O)cc3F)cn2)C=N1"
  MIC90 / µg/mL: 1
- compound: "CN1CCN(c2ccc(-c3ccc(N4C[C@H](Cn5ccnn5)OC4=O)cc3F)cn2)C=N1"
  MIC90 / µg/mL: 0.25
- compound: "CC(=O)NC[C@H]1CN(c2ccc(-c3ccc(N4C=NNCC4)nc3)c(F)c2)C(=O)O1"
  MIC90 / µg/mL: 0.5
- compound: "COC(=O)NC[C@H]1CN(c2ccc(-c3ccc(N4C=NN(C)CC4)nc3)c(F)c2)C(=O)O1"
  MIC90 / µg/mL: 0.5
- compound: "CC(=O)NC[C@H]1CN(c2ccc(-c3ccc(N4C=NN(C(N)=O)CC4)nc3)c(F)c2)C(=O)O1"
  MIC90 / µg/mL: 0.25
- compound: "O=C(CO)N1CCN(c2ccc(-c3ccc(N4C[C@H](Cn5ccnn5)OC4=O)cc3F)cn2)C=N1"
  MIC90 / µg/mL: 0.25
- compound: "CCN1CCN(c2ccc(-c3ccc(N4C[C@H](CNC(C)=O)OC4=O)cc3F)cn2)C=N1"
  MIC90 / µg/mL: 0.5
- compound: "COC(=O)NC[C@H]1CN(c2ccc(-c3ccc(N4C=NN(C(=O)CO)CC4)nc3)c(F)c2)C(=O)O1"
  MIC90 / µg/mL: 0.25
- compound: "CC(=O)NC[C@H]1CN(c2ccc(-c3ccc(N4CCN(C(=O)CO)C=N4)nc3)c(F)c2)C(=O)O1"
  MIC90 / µg/mL: 0.125
- compound: "NC(=O)N1CCN(c2ccc(-c3ccc(N4C[C@H](Cn5ccnn5)OC4=O)cc3F)cn2)C=N1"
  MIC90 / µg/mL: 0.25

// data source = patent US8846669B2
